Provide the reported polymerase ribozyme fitness (log ratio) of each item.
B1: TPR t1 (parent)
chain: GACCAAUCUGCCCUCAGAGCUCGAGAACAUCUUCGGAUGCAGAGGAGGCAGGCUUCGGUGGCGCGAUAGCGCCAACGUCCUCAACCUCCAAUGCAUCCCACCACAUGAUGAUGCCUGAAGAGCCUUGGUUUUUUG

Variants of: B1
Assay: polymerase ribozyme fitness, log enrichment relative to wild type (log ratio); higher = more active; in vitro selection for triplet polymerase activity
One number for each entry.

[
  {
    "Sequence entry": "GACCAAUCUGCCCUCAGAGCUCGAGAACAUCUUCGGAUGCAGAGGAGCCAGGCUUCGGUGGCGCGAUAGCGCCAACGUCCUCUACCUCCAAUGCAUCCCACCACAUGGUGAUGCCUGAAGAGCCUUGGUUUUUUG [G48C A83U A108G]",
    "polymerase ribozyme fitness (log ratio)": -1.66
  }
]

Give polymerase ribozyme fitness (log ratio) for each of the items listed below.
1. GACCAAUCUGCCCUCAAAGCUCGAGAACAUCUUCGGAUGCAGAGGAGACAGGCUUCGGUGGCGCGAUAGCGCCAACGUCCUCAACCUCCAAUGCAUCCCACAACAUGAUGAUGCCUGAUGAGACUUGGUUUUUUG [G17A G48A C102A A119U C123A]
2. GACCAAUUUGCCCUCAGAGCUCGAGAACAUCUUCGGAUGCAGAGGAGGCAGGCUUCGGUGGCGCGAUAGCGCCAACGUCCUCAAUCUCCAAUGCAUCCCACCACAUGAUGAUGCCUGAAGAGCGUUGGUUUUUUG [C8U C85U C124G]
3. GACCAAUCUGCCCUCAGAGAUCGAGAACAUCUUCGGAUGCAGAGGAGGCAGGCUUCGGUGGCGCGAUAGAGCCAACGUCCUCAACCUCCAAUGCAUCCCACCACAUGAUGAUGCCUGAAGAGACUUGGUAUUUUG [C20A C70A C123A U130A]
4. GACCAAUCUGCCCUCAGAGCUCGAGAACAUCUUUGGAUGCAGAUGAGGCAGGCUUCGGUGGCGCGAUAGCGCCAACGUCCUCAACCUCCAAUGCAUCCCACCACAUGAUGAUGCCUGAAGAGCCUUGGUUUUUUG [C34U G44U]
5. GACCAAUCUGCCCUCAGAGCUCGAGAACAUCUUCGGAUGCAGAGGAGGCACGCUUCGGUGGCGCGAUAGCGCCAACGUCCUCAACCUCCAAUUCAUCCCACCACAUGAUGAUGCCUGAAGAGCCUUGGUUUUUUG [G51C G93U]

Data returned:
1: -6.09; 2: 2.05; 3: -4.36; 4: -4.41; 5: -5.19

I have 4 variants here; please give me polymerase ribozyme fitness (log ratio) for each one.
1. GACCAAUCUGCCCUCAGAGCUCGAGAACAUCUUCGGAUGCAGAGGAGGCAGGCUUCGGUGGCGCGAUAGCGCCAACGUCCUCAACCUCCAAUGCAUCCCACCACAUGAUGAUGCCUCAAGAGCCUGGGUUUUUUG [G117C U126G]
2. GACCAAUCUGCCCUGAGAGCUCGAGAACAUCUUCGGAUGCAGAGGAGGCAGGCUUCGGUGGCGCGAUAGCUUCAACGUCCUCAACCUCCAAUGCUUCCCACCACAUGAUGAUGCCUGAAGAGCCUUGGUUUUUUG [C15G G71U C72U A95U]
3. GACCAAUCUGCCCUCAGAGCUCGAGAACAUCUUCGGAUGCAGAGGAGGCAGGCUUCGGUGGCGCGAUAGCGCAAACGUCCUCAACCUCCAAUGCAUCCCACCAAAUGAUGAUGCCUGAAGAGCCUUGGUUUUUUG [C73A C104A]
4. GACCAAUCUGCCCUCAGAGCUCGAGAACAUCUUCGGAUGCAGAGGAGGCAGGCUUCGGUGGCUCGAUAGCGCCAACGUCCUCACCCUCCAAUGCAUCCCACCACAUGAUGAUGCCUGAAGAGCCUUGGUUUUUUG [G63U A84C]

Data returned:
-3.22
-4.5
-1.07
-1.52
